- target-or-test-system: T1, recombinant human SOST (rhSOST) (human, UniProt Q9BQB4 24-213)
- T1 construct: Treated as one molecule; also called recombinant human SOST protein; human sclerostin
- T1 sequence: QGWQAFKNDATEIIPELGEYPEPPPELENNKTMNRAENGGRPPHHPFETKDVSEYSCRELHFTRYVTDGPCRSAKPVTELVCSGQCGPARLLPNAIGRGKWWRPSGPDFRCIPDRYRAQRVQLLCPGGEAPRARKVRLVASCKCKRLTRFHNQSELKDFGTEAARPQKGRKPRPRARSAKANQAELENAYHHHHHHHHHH
- protocol-notes: SPR Biacore T200, IgG captured via anti-human Fc, rhSOST analyte, 37 C
Below: a set of entries, each annotated with reported kon.
Report only the number, with the unit M⁻¹ s⁻¹ understood.

- binder: "DM15 (antibody, V domains shown, also called wt/mL4) VH: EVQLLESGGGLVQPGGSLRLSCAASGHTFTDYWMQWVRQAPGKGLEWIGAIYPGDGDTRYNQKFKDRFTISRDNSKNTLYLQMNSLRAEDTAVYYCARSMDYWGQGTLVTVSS VL: DIVMTQSPDSLAVSLGERATINCRASKTVDSYGNSFMHWFQQKPGQPPKLLIHHSSNLESGVPDRFSGSGSGTDFTLTISSLQAEDVAVYYCLQTIEHPYTFGQGTKLEIK"
  number: "3.72e+06"

What value of kon has been recorded for this entry: DM25 (antibody, V domains shown, also called mH4/wt) VH: EVQLLESGGGLVQPGGSLRLSCAASGHTFTDYWMQWVRQAPGKGLEWVGAIYPGDGDTRYNQKFKDRFTISRDNSKNTLYLQMNSLRAEDTAVYYCARSMDYWGQGTLVTVSS VL: DIVMTQSPDSLAVSLGERATINCRASKTVDSYGNSFMHWFQQKPGQPPKLLIHHSSNLESGVPDRFSGSGSGTDFTLTISSLQAEDVAVYYCLQTIEDPYTFGQGTKLEIK 5.81e+06

The reported measurements were obtained from patent WO2015087187A1.
